Reported hGLP1R cAMP Rel EC50 values follow for various binders
target: human GLP-1 receptor (human, UniProt P43220 24-463); test: cell-based or functional assay

# Binder, hGLP1R cAMP Rel EC50
data = [
    ("YXEGTFISDYSILLDKKAQXDFVNWLLAQGPSSGAPPPS (D-Ala2; K17((2-[2-(2-Amino-ethoxy)-ethoxy]-acetyl)2-(γ-Glu)-CO-(CH2)16-CO2H); Aib20; C-terminal amide) [Example 2]", "> 5 µM"),
    ("YXEGTFISDYSILLDKKAQXEFVNWLLEGGPSSGAPPPS (D-Ala2; K17((2-[2-(2-Amino-ethoxy)-ethoxy]-acetyl)2-(γ-Glu)-CO-(CH2)16-CO2H); Aib20; C-terminal amide) [Example 28]", "> 5 µM"),
    ("YXEGTFISDYSILLDKKAQXDFVNWLLEQGPSSGAPPPS (D-Ala2; K17((2-[2-(2-Amino-ethoxy)-ethoxy]-acetyl)2-(γ-Glu)-CO-(CH2)16-CO2H); Aib20; C-terminal amide) [Example 17]", "> 5 µM"),
]
